- protocol-description: Cytotoxicity against Vero cells
- Format: cell-based
- condition: chlorocebus sabaeus
endpoint-label: CC50

What value of measured CC50 is listed for Cc1cc(Br)cn2c(-c3ccnc(NC4CCCC4)n3)c(-c3ccc(F)cc3)nc12 ? > 40 µM

What value of measured CC50 is listed for Fc1ccc(-c2nc3c(NC4CC4)cccn3c2-c2ccnc(NC3CCCC3)n2)cc1 ? 33 µM

What value of measured CC50 is listed for CCCCNc1cc(Br)cn2c(-c3ccnc(NC4CCCC4)n3)c(-c3ccc(F)cc3)nc12 ? > 40 µM

What value of measured CC50 is listed for c1cc(NC2CCCC2)c2nc(-c3ccc(OCC4CC4)cc3)c(-c3ccnc(NC4CCCC4)n3)n2c1 ? > 40 µM

What value of measured CC50 is listed for N#Cc1cccc(-c2nc3c(NC4CCCC4)cccn3c2-c2ccnc(NC3CCCC3)n2)c1 ? > 40 µM

What value of measured CC50 is listed for CCCCNc1cccn2c(-c3ccnc(NC4CCCC4)n3)c(-c3ccc(F)cc3)nc12 ? 32 µM

What value of measured CC50 is listed for Fc1ccc(-c2nc3c(NC4CCCC4)cccn3c2-c2ccnc(NC3CCCC3)c2)cc1 ? > 40 µM

What value of measured CC50 is listed for COc1cccc(-c2nc3c(NC4CCCC4)cccn3c2-c2ccnc(NC3CCCC3)n2)c1 ? > 40 µM

What value of measured CC50 is listed for Fc1ccc(-c2nn3c(NC4CCCC4)cccc3c2-c2ccnc(NC3CCCC3)n2)cc1 ? > 160 µM

What value of measured CC50 is listed for COc1ccc(-c2nc3c(Cl)cccn3c2-c2ccnc(NC3CCCC3)n2)cc1 ? 30.1 µM

What value of measured CC50 is listed for Fc1ccc(-c2nc3c(NC4CCCC4)cc(Cl)cn3c2-c2ccnc(NC3CCCC3)n2)cc1 ? > 40 µM

What value of measured CC50 is listed for Fc1ccc(-c2nc3ccccn3c2-c2ccnc(NC3CCCC3)n2)cc1 ? > 40 µM

What value of measured CC50 is listed for COCCNc1cccn2c(-c3ccnc(NC4CCCC4)n3)c(-c3ccc(F)cc3)nc12 ? > 40 µM

What value of measured CC50 is listed for Oc1ccc(-c2nc3c(NC4CCCC4)cccn3c2-c2ccnc(NC3CCCC3)n2)cc1 ? > 40 µM
